Target: 5-hydroxytryptamine receptor 4 (Rattus norvegicus, UniProt Q62758)
Sequence (Q62758 whole entry): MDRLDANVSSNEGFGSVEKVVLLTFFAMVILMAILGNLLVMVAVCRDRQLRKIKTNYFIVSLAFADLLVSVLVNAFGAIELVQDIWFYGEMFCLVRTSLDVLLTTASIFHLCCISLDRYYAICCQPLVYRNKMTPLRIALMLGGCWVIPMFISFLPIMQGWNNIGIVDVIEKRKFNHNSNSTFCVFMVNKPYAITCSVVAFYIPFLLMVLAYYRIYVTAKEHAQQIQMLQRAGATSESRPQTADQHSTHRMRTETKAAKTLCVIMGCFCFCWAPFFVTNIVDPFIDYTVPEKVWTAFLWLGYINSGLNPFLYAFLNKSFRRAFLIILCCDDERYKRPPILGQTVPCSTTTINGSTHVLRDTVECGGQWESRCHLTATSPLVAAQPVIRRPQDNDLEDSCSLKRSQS
Assay: Binding affinity at 5-hydroxytryptamine 4 receptor in rat striatal membranes by [3H]GR-113808 displacement.
Format: cell membranes, Striatum, Membrane
ENDPOINT_LABEL: Ki (nM)

> print(dat)
                              smiles.string  endpoint.label  val
1              CCOc1ccccc1NC(=O)OCCN1CCCCC1              Ki  2.6
2  COc1ccccc1NC(=O)OCCN1C[C@H](C)C[C@H](C)C1              Ki  2.6
3             COc1cccc(NC(=O)OCCN2CCCCC2)c1              Ki  469

* * *

Target: 5-hydroxytryptamine receptor 4 (Rattus norvegicus)
Assay: Binding affinity at 5-hydroxytryptamine 4 receptor in rat striatal membranes by [3H]GR-113808 displacement.
Format: cell membranes, Striatum, Membrane
pKi: −log10 of the molar value.
ENDPOINT_LABEL: pKi

> print(dat)
                   smiles.string     val
1    O=C(Nc1ccccc1Cl)OCCN1CCCCC1  < 6.00
2    COc1ccccc1NC(=O)CCCN1CCCCC1  < 6.00
3  COc1ccc(NC(=O)OCCN2CCCCC2)cc1  < 6.00
